# Tested on: Candida albicans
# Assay explanation: Antifungal activity against mature preformed Candida albicans ATCC 10231 biofilm by XTT reduction assay
# Assay type: functional
For each of the compounds below, state its MIC50.
Answers are plain numbers, in mg/L.

{"Compound": "O=C(OCc1ccc([N+](=O)[O-])o1)c1ccc(O)c(O)c1", "Unit tag": "mg/L", "MIC50": 64}
{"Compound": "O=C(/C=C/c1ccccc1)OCc1ccc([N+](=O)[O-])o1", "Unit tag": "mg/L", "MIC50": 64}
{"Compound": "COC(=O)/C=C/c1ccc(O)c(O)c1 [METHYLCAFFEATE]", "Unit tag": "mg/L", "MIC50": 256}
{"Compound": "CC(C)COC(=O)/C=C/c1ccc(O)c(O)c1", "Unit tag": "mg/L", "MIC50": 256}
{"Compound": "OC(Cn1cncn1)(Cn1cncn1)c1ccc(F)cc1F [FLUCONAZOLE]", "Unit tag": "mg/L", "MIC50": 256}

Items follow; give MIC50 for each.
1. COc1ccc(OC(=O)/C=C/c2ccc(O)c(O)c2)cc1F
2. O=C(/C=C/c1ccc(O)c(O)c1)OCc1ccc([N+](=O)[O-])o1
3. CCCOC(=O)/C=C/c1ccc(O)c(O)c1
4. O=C(CCc1ccc(O)c(O)c1)OCc1ccc([N+](=O)[O-])o1
5. O=C(O)/C=C/c1ccc(O)c(O)c1 [CAFFEIC ACID]
6. CCOC(=O)/C=C/c1ccc(O)c(O)c1 [ETHYL CAFFEATE]

result:
1: 256; 2: 128; 3: 256; 4: 128; 5: 256; 6: 256

----------
Give CC50 for every item shown.
# Assay explanation: in vitro
# Assay context: human, NCI-H292 cells
# Description: Cytotoxicity against human NCI-H292 cells assessed as reduction in viable cells by MTT assay
Answers are plain numbers, in µg/mL.

{"Chemical string": "O=C(CCc1ccc(O)c(O)c1)OCc1ccc([N+](=O)[O-])o1", "Unit tag": "µg/mL", "CC50": 257}
{"Chemical string": "O=C(/C=C/c1ccc(O)c(O)c1)OCc1ccc([N+](=O)[O-])o1", "Unit tag": "µg/mL", "CC50": 192}
{"Chemical string": "O=C(OCc1ccc([N+](=O)[O-])o1)c1ccc(O)c(O)c1", "Unit tag": "µg/mL", "CC50": 132}

Then this molecule:
query: Quick one: CC50 for O=C(/C=C/c1ccccc1)OCc1ccc([N+](=O)[O-])o1 ?
result: 174
